tested on: Pasteurella multocida; experiment: Minimum inhibitory concentration against Pasteurella multocida was determined; format: functional; settings: Pasteurella multocida; read-out: MIC
Measured Metric: MIC (µg/mL)
Quick reminder: number only, in µg/mL, skip the unit.

Incoming: Lab note: need MIC for C=CCOc1ccc(/C=C(\C)C(=O)N[C@@H]2[C@H](O)[C@@H](O)[C@H]3OCO[C@H]3[C@@H]2O)cc1O on Pasteurella multocida, anyone have it?
Outgoing: 1.56

Incoming: How about CC(=O)[C@H]1O[C@@H](Oc2ccc(/C=C(\C)C(=O)N[C@@H]3[C@H](O)[C@@H](O)[C@H]4OCO[C@H]4[C@@H]3O)cc2O)[C@@H](O)[C@@H]1O ?
Outgoing: 1.56

Incoming: How about C=CCOc1ccc(/C=C(\C)C(=O)N[C@@H]2[C@H](O)CCC[C@@H]2O)cc1O ?
Outgoing: 100
